target_entity: pyk2 (Homo sapiens, UniProt Q14289)
Sequence (Q14289 whole entry, species assumed): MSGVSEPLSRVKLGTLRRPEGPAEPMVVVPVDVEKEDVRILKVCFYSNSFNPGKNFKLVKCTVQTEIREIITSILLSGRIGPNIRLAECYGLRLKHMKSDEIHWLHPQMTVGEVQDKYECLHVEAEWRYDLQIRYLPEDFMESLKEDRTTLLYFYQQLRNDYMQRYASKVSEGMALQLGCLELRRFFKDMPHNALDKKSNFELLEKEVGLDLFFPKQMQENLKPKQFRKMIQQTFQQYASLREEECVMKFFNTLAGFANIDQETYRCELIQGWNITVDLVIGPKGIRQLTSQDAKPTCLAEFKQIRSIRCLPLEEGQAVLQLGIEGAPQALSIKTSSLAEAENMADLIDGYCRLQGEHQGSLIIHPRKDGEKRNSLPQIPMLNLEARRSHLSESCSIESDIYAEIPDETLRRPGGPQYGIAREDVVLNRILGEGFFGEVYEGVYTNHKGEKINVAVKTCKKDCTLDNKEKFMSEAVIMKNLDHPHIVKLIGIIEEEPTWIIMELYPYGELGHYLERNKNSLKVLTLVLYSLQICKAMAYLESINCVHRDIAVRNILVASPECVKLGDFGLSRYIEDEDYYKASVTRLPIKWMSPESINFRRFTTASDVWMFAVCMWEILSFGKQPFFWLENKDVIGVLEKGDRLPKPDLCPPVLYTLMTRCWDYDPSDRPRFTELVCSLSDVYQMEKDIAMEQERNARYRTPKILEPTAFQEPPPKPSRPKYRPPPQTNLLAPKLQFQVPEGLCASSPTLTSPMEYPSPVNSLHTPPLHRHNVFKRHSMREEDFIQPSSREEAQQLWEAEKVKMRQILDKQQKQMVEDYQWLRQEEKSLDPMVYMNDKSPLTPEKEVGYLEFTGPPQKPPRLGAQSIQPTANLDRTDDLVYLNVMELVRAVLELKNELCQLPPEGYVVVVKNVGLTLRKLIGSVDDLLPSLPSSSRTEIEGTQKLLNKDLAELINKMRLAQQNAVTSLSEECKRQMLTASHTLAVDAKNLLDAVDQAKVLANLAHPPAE
// boundary case: IC50 equal to 7 µM maps to not met; strictly smaller maps to met

Req: Confirm or reject: IC50 of `Cc1c[nH]c(/C=C2\C(=O)Nc3ccc(Br)cc32)c1CCC(=O)O` lies strictly below 7 µM
Resp: met

Req: Confirm or reject: IC50 of `CNS(=O)(=O)c1ccc2c(c1)/C(=C/c1cc3ccccc3[nH]1)C(=O)N2` lies strictly below 7 µM
Resp: not met

Req: Confirm or reject: IC50 of `O=C1Nc2ccc(C(=O)O)cc2/C1=C/c1ccc2[nH]ccc2c1` lies strictly below 7 µM
Resp: not met

Req: Confirm or reject: IC50 of `COc1ccc2c(c1)NC(=O)/C2=C\c1[nH]c2c(c1CCC(=O)O)CCCC2` lies strictly below 7 µM
Resp: met

Req: Confirm or reject: IC50 of `Cc1c[nH]c(C=C2C(=O)Nc3cc(Cl)ccc32)c1CCC(=O)O` lies strictly below 7 µM
Resp: met

Req: Confirm or reject: IC50 of `CC(C)NS(=O)(=O)c1ccc2c(c1)C(=Cc1[nH]c3c(c1CCC(=O)O)CCCC3)C(=O)N2` lies strictly below 7 µM
Resp: met

Req: Confirm or reject: IC50 of `O=C(O)CCc1c(/C=C2\C(=O)Nc3ccc(Br)cc32)[nH]c2c1CCCC2` lies strictly below 7 µM
Resp: met

Req: Confirm or reject: IC50 of `O=C1Nc2ccccc2/C1=C/c1[nH]c2c(c1CCC(=O)N1CCOCC1)CCCC2` lies strictly below 7 µM
Resp: met

Req: Confirm or reject: IC50 of `Cc1c[nH]c(/C=C2\C(=O)Nc3cccc(C)c32)c1CCC(=O)O` lies strictly below 7 µM
Resp: not met

Req: Confirm or reject: IC50 of `CNS(=O)(=O)c1ccc2c(c1)/C(=C/c1ccc3[nH]ccc3c1)C(=O)N2` lies strictly below 7 µM
Resp: not met
